Reference for the values: the supplement of paper PMC6089552

Each item that follows carries a reported cell viability (log2).
- Tested on: A673/TR/shEF
- Assay Remarks: cell viability (LOESS-normalised, relative to median of negative controls) (log2 ratio); higher = more viable cells (less compound effect), active = hit call of the paper (over 3 MAD below the median)
- Measurement Setup: 0.308 µM; library screen: screen3; EWS-FLI1 expression: low (doxycycline-induced shRNA knockdown); treatment time: 72 h
In all, about 3,200 compounds went through this assay and about 300 (9.4%) showed activity. The list comes from a sample in which actives are over-represented; it also holds close analogues and randomly drawn compounds.
Please reply with the value in numeric form only.

Look over these answered cases.
[[record]]
compound = "CC[C@H](CO)Nc1nc(NCc2ccccc2)c2ncn(C(C)C)c2n1"
study_target = "A673/TR/shEF"
recorded_result = 0.0646

[[record]]
compound = "CN(Cc1cnc2nc(N)nc(N)c2n1)c1ccc(C(=O)N[C@@H](CCC(=O)O)C(=O)O)cc1"
study_target = "A673/TR/shEF"
recorded_result = 0.0568

[[record]]
compound = "CC[C@@]1(O)C(=O)OCc2c1cc1n(c2=O)Cc2cc3c(CN(C)C)c(O)ccc3nc2-1"
study_target = "A673/TR/shEF"
recorded_result = -0.321

[[record]]
compound = "c1cc(CN2CCCNCCNCCCNCC2)ccc1CN1CCCNCCNCCCNCC1"
study_target = "A673/TR/shEF"
recorded_result = 0.00482

[[record]]
compound = "Cc1c(OCC(F)(F)F)ccnc1C[S+]([O-])c1nc2ccccc2[nH]1 (stereo not given)"
study_target = "A673/TR/shEF"
recorded_result = 0.0264

[[record]]
compound = "CCCCC1=NC2(CCCC2)C(=O)N1Cc1ccc(-c2ccccc2-c2nn[nH]n2)cc1"
study_target = "A673/TR/shEF"
recorded_result = 0.0296


Give recorded cell viability (log2). c1ccc([C@H]2CN3CCSC3=N2)cc1
0.0938

Give recorded cell viability (log2). C[C@@H](O)[C@H]1C(=O)N2C(C(=O)[O-])=C(SC3Cn4cnc[n+]4C3)[C@H](C)[C@H]12 (stereo not given in full)
0.0849

Give recorded cell viability (log2). COc1cccc2c1C(=O)c1c(O)c3c(c(O)c1C2=O)C[C@@](O)(C(=O)CO)C[C@@H]3O[C@H]1C[C@H](N)[C@H](O)[C@H](C)O1
-0.36

Give recorded cell viability (log2). Cc1nnc(C(C)C)n1C1C[C@H]2CC[C@@H](C1)N2CC[C@H](NC(=O)C1CCC(F)(F)CC1)c1ccccc1 (stereo not given in full)
0.0864
